target: Protein arginine N-methyltransferase 5 (Homo sapiens); test: Displacement of [3H]-SAM from PRMT5 (unknown origin) at 10 uM using peptide substrate preincubated for 15 mins followed by substrate addition for 60 mins by radioactive biochemical assay relative to control
Sequence (O14744 whole entry): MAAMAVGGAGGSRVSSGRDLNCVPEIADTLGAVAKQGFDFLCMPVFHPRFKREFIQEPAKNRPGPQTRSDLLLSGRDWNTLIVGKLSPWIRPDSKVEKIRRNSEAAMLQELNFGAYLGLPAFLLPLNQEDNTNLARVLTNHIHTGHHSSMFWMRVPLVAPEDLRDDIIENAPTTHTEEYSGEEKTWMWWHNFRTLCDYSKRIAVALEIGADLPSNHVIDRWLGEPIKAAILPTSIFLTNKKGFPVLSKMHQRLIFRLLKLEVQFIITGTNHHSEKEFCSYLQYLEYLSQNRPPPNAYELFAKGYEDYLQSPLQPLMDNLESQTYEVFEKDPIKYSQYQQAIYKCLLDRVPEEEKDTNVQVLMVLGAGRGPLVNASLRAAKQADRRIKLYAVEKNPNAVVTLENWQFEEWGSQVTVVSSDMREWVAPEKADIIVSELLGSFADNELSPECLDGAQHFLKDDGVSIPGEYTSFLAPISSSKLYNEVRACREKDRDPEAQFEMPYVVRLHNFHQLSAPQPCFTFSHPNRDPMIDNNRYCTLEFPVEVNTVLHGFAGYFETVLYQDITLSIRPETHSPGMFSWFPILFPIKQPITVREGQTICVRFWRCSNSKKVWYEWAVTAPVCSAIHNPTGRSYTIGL
Experimental Readout: inhibition
The number alone won't do; follow it with the unit.

[[record]]
smiles = "Nc1ncnc2c1ncn2Cc1ccccc1"
experimental_readout = "inhibition"
reading = "15.6%"

[[record]]
smiles = "Nc1ncnc2[nH]c(-c3ccc(OCc4ccccc4)cc3)cc12"
experimental_readout = "inhibition"
reading = "81.9%"

[[record]]
smiles = "Nc1ncnc2c1ccn2Cc1cccc(Oc2ccccc2)c1"
experimental_readout = "inhibition"
reading = "15.5%"

[[record]]
smiles = "Nc1ncnc2c1ncn2-c1ccc(OCc2ccccc2)cc1"
experimental_readout = "inhibition"
reading = "20.2%"

[[record]]
smiles = "Nc1ncnc2c1ccn2-c1ccc(OCc2ccccc2)cc1"
experimental_readout = "inhibition"
reading = "10.5%"

[[record]]
smiles = "Nc1ncnc2[nH]c(-c3ccc(OCc4ccccc4)cc3)nc12"
experimental_readout = "inhibition"
reading = "84.4%"


Input: Name the reported inhibition value associated with the compound Nc1ncnc2c1ccn2Cc1ccc(Oc2ccccc2)cc1
Output: 14.1%

Input: # repeat for Nc1ncnc2c1ccn2Cc1ccccc1
Output: 18.1%
